Just for reference, patent US20250236609A1 is where these values come from.

As an illustration, consider measured IC50 for compounds on VPS34 (Homo sapiens (Human), UniProt Q8NEB9).
Sequence (Q8NEB9 other isoform, or with tags, fused parts or gaps): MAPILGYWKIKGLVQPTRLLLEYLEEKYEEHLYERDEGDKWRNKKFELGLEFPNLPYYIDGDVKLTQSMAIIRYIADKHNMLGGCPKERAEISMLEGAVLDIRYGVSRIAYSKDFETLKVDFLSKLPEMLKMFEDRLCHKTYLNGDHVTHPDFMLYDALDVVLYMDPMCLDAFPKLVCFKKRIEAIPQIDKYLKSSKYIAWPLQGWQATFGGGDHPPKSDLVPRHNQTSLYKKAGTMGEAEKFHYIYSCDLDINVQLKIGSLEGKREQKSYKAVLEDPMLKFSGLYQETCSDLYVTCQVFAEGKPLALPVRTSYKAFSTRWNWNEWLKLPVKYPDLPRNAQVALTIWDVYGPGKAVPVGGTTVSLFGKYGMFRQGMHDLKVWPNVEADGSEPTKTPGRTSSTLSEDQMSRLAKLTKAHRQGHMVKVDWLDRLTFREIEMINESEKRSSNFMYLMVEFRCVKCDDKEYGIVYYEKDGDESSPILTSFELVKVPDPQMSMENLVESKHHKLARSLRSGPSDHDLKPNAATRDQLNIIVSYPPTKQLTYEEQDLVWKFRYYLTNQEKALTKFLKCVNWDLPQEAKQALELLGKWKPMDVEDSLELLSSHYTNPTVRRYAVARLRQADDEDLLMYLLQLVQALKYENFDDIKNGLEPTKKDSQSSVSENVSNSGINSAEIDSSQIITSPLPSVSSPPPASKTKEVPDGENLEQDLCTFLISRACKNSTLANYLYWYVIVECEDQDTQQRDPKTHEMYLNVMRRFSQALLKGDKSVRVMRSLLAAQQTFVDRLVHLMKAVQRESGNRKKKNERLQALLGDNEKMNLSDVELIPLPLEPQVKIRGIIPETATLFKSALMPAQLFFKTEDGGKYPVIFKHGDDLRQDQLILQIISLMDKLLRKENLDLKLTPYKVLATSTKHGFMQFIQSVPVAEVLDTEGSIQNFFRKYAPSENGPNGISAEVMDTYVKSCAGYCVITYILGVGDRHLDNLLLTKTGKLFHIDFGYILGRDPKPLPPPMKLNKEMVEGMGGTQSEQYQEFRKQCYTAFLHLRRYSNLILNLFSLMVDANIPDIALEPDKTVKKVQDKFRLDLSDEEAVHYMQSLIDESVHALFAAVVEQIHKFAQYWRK

Worked examples follow.
Cc1cnc(NC(=O)CC2CN(C)CC2(F)F)cc1-c1cc(N2CCCC[C@@H]2C(F)(F)F)[nH]c(=O)c1 (some centres unmarked); 500 to 1000 nM
Cc1cnc(N)cc1-c1cc(N2CCCC[C@@H]2C(F)(F)F)[nH]c(=O)c1; 1000 to 10000 nM

Prompt: Which measured IC50 value corresponds to `Cc1nccc(Nc2cc(-c3cc(-c4cccnc4C(F)(F)F)[nH]c(=O)c3)c(C)cn2)n1` ?
Response: ≤ 100 nM

Prompt: // same read-out, input: `COC(=O)Nc1cc(-c2cc(-c3cccnc3C(F)(F)F)[nH]c(=O)c2)c(Cl)cn1`
Response: 1000 to 10000 nM

Prompt: // same read-out, input: `Cc1cnc(NC(=O)C2CC2)cc1-c1cc(N2CCN(C(=O)CC3CC3)C[C@@H]2C)[nH]c(=O)c1`
Response: 1000 to 10000 nM

Prompt: // same read-out, input: `Cc1cnc(N)cc1-c1cc(-c2cccnc2C(F)(F)F)[nH]c(=O)c1`
Response: 1000 to 10000 nM

Prompt: // same read-out, input: `CNCCC(=O)Nc1cc(-c2cc(-c3cccnc3C(F)(F)F)[nH]c(=O)c2)c(C)cn1`
Response: 1000 to 10000 nM

Prompt: // same read-out, input: `CNC(=O)Nc1cc(-c2cc(N3CCCC[C@@H]3C(F)(F)F)[nH]c(=O)c2)c(C)cn1`
Response: 100 to 500 nM
